target: human TLR9 (Homo sapiens, UniProt Q9NR96); experiment: TLR9 inhibition reporter assay (HEK-Blue cells, SEAP reporter, ODN2006 stimulation); conditions: HEK-Blue cells overexpressing human TLR9, SEAP reporter, ODN2006 5 nM
Sequence (Q9NR96 26-1032): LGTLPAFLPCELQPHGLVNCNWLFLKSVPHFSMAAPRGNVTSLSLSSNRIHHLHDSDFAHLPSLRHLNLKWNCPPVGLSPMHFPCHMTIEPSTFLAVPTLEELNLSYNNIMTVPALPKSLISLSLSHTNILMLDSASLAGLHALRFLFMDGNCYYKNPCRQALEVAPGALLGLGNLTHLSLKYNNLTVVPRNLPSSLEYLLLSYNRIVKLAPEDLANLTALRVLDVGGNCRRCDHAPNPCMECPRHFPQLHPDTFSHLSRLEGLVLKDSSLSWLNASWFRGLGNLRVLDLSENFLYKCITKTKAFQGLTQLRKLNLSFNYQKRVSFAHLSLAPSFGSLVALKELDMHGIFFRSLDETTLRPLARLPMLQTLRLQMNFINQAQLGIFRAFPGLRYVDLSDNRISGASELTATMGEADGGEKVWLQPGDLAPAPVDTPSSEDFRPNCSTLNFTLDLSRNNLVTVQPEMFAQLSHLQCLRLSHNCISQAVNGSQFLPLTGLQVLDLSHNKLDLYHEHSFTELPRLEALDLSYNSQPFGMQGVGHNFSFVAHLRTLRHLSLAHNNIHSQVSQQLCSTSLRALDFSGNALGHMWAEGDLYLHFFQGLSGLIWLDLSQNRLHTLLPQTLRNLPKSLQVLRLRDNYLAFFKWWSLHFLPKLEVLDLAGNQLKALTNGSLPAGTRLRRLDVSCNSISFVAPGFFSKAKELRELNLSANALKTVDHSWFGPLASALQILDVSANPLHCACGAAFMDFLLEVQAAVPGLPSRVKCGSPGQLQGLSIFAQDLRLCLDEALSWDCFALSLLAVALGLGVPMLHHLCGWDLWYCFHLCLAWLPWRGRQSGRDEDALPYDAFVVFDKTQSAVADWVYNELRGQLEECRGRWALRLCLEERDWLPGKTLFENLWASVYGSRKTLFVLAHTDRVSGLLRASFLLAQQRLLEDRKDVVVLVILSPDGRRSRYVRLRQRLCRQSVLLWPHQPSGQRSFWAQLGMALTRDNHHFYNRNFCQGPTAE
metric name: IC50 (µM)

{"columns": ["compound", "metric name", "unit info", "endpoint result"],
 "data": [
  ["Cc1cc(-c2[nH]c3ccc(CCN4CCCC(F)C4)cc3c2C(C)C)cn(C)c1=O (centres unmarked)", "IC50", "µM", 8.81],
  ["Cc1c(-c2[nH]c3ccc(C4CN(C(C)C)C4)cc3c2C(C)C)cn2cnnc2c1C", "IC50", "µM", 7.17],
  ["Cc1c(-c2[nH]c3ccc(C4CN(CC(=O)N(C)C)C4)cc3c2C(C)C)cn(C)c(=O)c1C", "IC50", "µM", 14.9]
]}

I: COc1cc(-c2[nH]c3ccc(C4CCC(NC(=O)CNCC(C)(C)O)CC4)cc3c2C(C)C)cn2ncnc12 (centres unmarked)
II: COc1cc(-c2[nH]c3ccc(C4CCC(N5CC6(COC6)C5)CC4)cc3c2C(C)C)cn2ncnc12 (centres unmarked) [Example 80]
III: CN[C@@H](C)C(=O)N1CCCC(c2ccc3[nH]c(-c4cc(C)nc(C)c4)c(C(C)C)c3c2)C1 (some centres unmarked) [Example 216]
Rank order required: IC50, descending. Please reply with the labels ordered as requested. Many thanks.
I, II, III

1: CNC(=O)CN1CCOC(c2ccc3[nH]c(-c4cc(C)nc(C)c4)c(C(C)C)c3c2)C1 (centres unmarked) [Example 325]
2: COc1cc(-c2[nH]c3ccc(C4CCC(N(C)CCS(C)(=O)=O)CC4)cc3c2C(C)C)cn2ncnc12 (centres unmarked)
I need your help: which of the pair 1 , 2 has higher IC50? Identify your selection by its label.
1
(1: 36.8 µM, 2: 1.68 µM)
